experiment: yeast display, Sf9 membrane polyspecificity reagent, FACS + sequencing; frameworks hold sequencing errors
measure: polyreactivity (PSR sort gate)

Use the examples below as a reference point.
{"columns": ["seq_string", "value"],
 "data": [
  ["QVQLVESGGGLVQAGGSLRLSCAASGSTFQYNAMGWYRQAPGKERELVAVISGSGSRTYYADSVKGRFTISRDNSKNTVYLQMNSLKPEDTAVYYCAKQRGGQPRSSTYYYWGQGTQVTVSS", "high polyreactivity"],
  ["QVQLVESGGGLVQAGGSLRLSCAASGFTFNRYAMGWYRQAPGQERELVAAISRSGGSTSYADSVKGRFTISRDNAKKTVYLPMHSLKPEDTAVYYCAADRVWYLYYDYNYWGQGTQVTVSS", "high polyreactivity"],
  ["QVQLVESGGGLVQAGGSLRLSCAASGRIFYLYAMGWYRQAPGKERELVAAITWSGGSTYYADSVKGRFTISRDNAKNTVYLQMNSLKPEDTAVYYCARDDAYSDFDYDYWGQGTQVTVSS", "low polyreactivity"],
  ["QVQLVESGGGLVQAGGSLRLSCDASGIIFPYYAMGWYRQAPGKERELVAGISSSGGITYADSVKGRFTISRDNAKNTVYLQMNSLNPEDTAVYYCNAEYQWLEYDYWGQGTQVTVSS", "low polyreactivity"],
  ["QVHLVESGGGLVQAGGSLRLSCAASGITFFWYTMGWYRQAPGKDRELVAAISESGGDTYYADSVKGRFTISRDNAKNTVYLQMKILKPEDTAVYYCAADDSYYGLDYWGQGTQVTVSS", "low polyreactivity"]
]}

Record summary for QVQLEESGGGLVQAGGSLRLSCAASGRTFAFNAMGWYRPAPGKVRELVAVITSRTTRTYYADSVKGRFTISRDNAKNTVYLQMNSLKPEDTAVYYCAAGFRRQSIRFDYWGQGTQVTVSS : reported polyreactivity (PSR sort gate) = high polyreactivity

###

assay: yeast display, Sf9 membrane polyspecificity reagent, FACS + sequencing; frameworks hold sequencing errors
measure: polyreactivity (PSR sort gate)

Use the examples below as a reference point.
{"columns": ["seq_string", "value"],
 "data": [
  ["QVQLVESGGGLVQAGGSLRLSCAASGRTFAYYAMGWYRQAPGKERELVAAISTSGTRTYYADSVKGRFTISRDNAKNTVYLQMNSLKPEDTAVYYCAARYRYQYEFDYWGQGTQVSVSS", "high polyreactivity"],
  ["QVQLVESGGGLVQAGGSLRLSCAAPGSIFYQNAMGGYRQAPGKERELVAAISRSGGSTYYADSVKGRFTISRDNAKNTVYLQMNSLKPEDTAVYYCAARISRQRSYSRDYWGQGTQVTVSS", "high polyreactivity"],
  ["QFQLVESGGGLVQAGGSLRLSCAASGRTFGSNVRGWYRQAPGKERELVAAISVSGGSTYYADSVKGRFTISRDNAKNTVYLQMNSLKPDDTAVYYCAADYPTLGYTQNDYWGQGTQVTVSS", "low polyreactivity"],
  ["QVQLVESGGGLVHAGGSLRLSCAASGFTFRGYAMGWYRPSPGKEREFVAAISRSGGSTNYADSVKGRFTISRDNAKNTVYLQMNSLKPEDTAVYYCAAGWNPYDYWGQGTQVTVSS", "high polyreactivity"],
  ["QVQLVESGGGLVQAGGSLRLSCAATGSIFDLNSMGWYRQAPGKEREVVAAISSGGGTYYADSVKGRFTISRDNANNTVFLQMNSLKPEDTAVYYCIRVTYRSRGRDYWGQGNQVTVSS", "high polyreactivity"]
]}

Record summary for QDQLVESGGGLVQTGGSLRLSWAASGSTFYNTVMGWYRQAPGKERELVAAINSGGRTYYADSVKGRFTISRDNAKNTVYLQMNSLNPEDTAVYYCAVGYGRAARMDYWGQGTQVTVSS : reported polyreactivity (PSR sort gate) = high polyreactivity

Record summary for QVKLVESGGGLVQAGGSLRLSCAASGRICGYYAMGWYRQAPGNERELVAAISWSGGSTYYADSVKGRFTISRDNAMNTVYLQRNSLKPEDTAVYYCNARYPNTRKYDYWGQVTQVTVSS : reported polyreactivity (PSR sort gate) = high polyreactivity
